system: rituximab (MabThera, lot N7075B10); experiment: SAW; settings: 20 mM Tris-HCl pH 7.6, 100 mM NaCl, 2 mM MgCl2, 5 mM KCl, 1 mM CaCl2, 0.02% Tween 20; SAW at 22 C (protein A chip-captured rituximab); ELASA at room …
pKd: −log10 of the molar value.
quantity-name: pKd

1. CGGCGGGGGGAGGATTGTGGTCTGCTCATGGCTGCCGTTT [RA1] | 6.17
2. GGGGGTGAGGATTGTGGTTTGGCTTATTGGTTTGCTGGTG [RA3] | 6.15
3. TATACTGGGCCGTGCGTGACTTTTCCGTGCTGCATGAGAG [RA4] | 6.45
4. TGGGGGTAGGATTGTGGTTGGCTTTAATTGCTTTGGTGGT [RA2] | 6.40
5. CGTGGGTGGGGATTGTGGTTTGGCTGATGGGGTGCTGGTT [RA6] | 6.05
